The reported numbers originate from the supplement of paper PMC10567573.

Here, each record is paired with measured protein stability index data.
B1: USP39 (parent)
chain: FQGSMRIFTKKLPHPDLPAEEKEQ

Variants of: B1
Protocol description: protein stability index of a GFP-peptide fusion (GPS, HEK-293T) (PSI 1-6); higher = more stable;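 also: lentivirally expressed fusions sorted by FACS into six bins by GFP to DsRed ratio, PSI derived from sequencing read proportions per bin multiplied by bin number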
Test conditions: c terminus: a fixed tail appended
The response must contain the number and no unit.

Here are 3 variants together with their reported answers.
>>> result("FQGSMRIFTKKLPHPDLPDEEKEQ [A19D]")
2.07
>>> result("FQGSMRIFPKKLPHPDLPAEEKEQ [T9P]")
3.14
>>> result("FQGSMRIFTKKPPHPDLPAEEKEQ [L12P]")
2.45

Task: GET /values?readout=protein stability index&item= FQGSMRHFTKKLPHPDLPAEEKEQ [I7H]
Result: 2.97

Task: Value lookup for protein stability index; key = FQGSMRIFTKKLPHPRLPAEEKEQ [D16R]
Result: 2.17

Task: What does the data say about its protein stability index? Entry: FQGSMRIFTKKLPHPDLPAEEKPQ [E23P]
Result: 1.84

Task: Record request: protein stability index value, item FQGSMRIFTKKLPHPDVPAEEKEQ [L17V]
Result: 1.88

Task: Using the record for FQGSMRIFTKKLPHPDLPAEEKEA [Q24A] , report its protein stability index.
Result: 2.05

Task: Dear colleague, I am looking for the recorded protein stability index of the following variant: FQGSMRIFTKKLPHPDLEAEEKEQ [P18E]
Result: 1.8

Task: Recorded protein stability index of FQGSMRIFTKKLPHPDLPAECKEQ [E21C] , please.
Result: 1.54

Task: // protein stability index lookup, key: FPGSMRIFTKKLPHPDLPAEEKEQ [Q2P]
Result: 1.75

Task: I would be grateful if you could share the reported protein stability index for FQGSMRIFTKKLPHPDLPALEKEQ [E20L] .
Result: 2.07

Task: Return reported protein stability index; argument: FQGSMRIFTKKLPTPDLPAEEKEQ [H14T]
Result: 2.36

Task: Recorded protein stability index of FGGSMRIFTKKLPHPDLPAEEKEQ [Q2G] , please.
Result: 3.26

Task: // returns reported protein stability index for input FQGSMRIRTKKLPHPDLPAEEKEQ [F8R]
Result: 3.59

Task: // lookup protein stability index for FQGSMRIFTKKLPHPDLPAAEKEQ [E20A]
Result: 1.9

Task: Item FQGSVRIFTKKLPHPDLPAEEKEQ [M5V] has what recorded protein stability index?
Result: 2.17

Task: # get_value(readout='protein stability index', item= FQGSMEIFTKKLPHPDLPAEEKEQ [R6E] )
Result: 1.81

Task: Need protein stability index, item FQGSMRIFTKKLPHPDLWAEEKEQ [P18W]
Result: 2.1

Task: // returns reported protein stability index for input FQGSMRIFTKKLPHPDLPADEKEQ [E20D]
Result: 1.87

Task: Would you mind telling me what protein stability index value was observed for FQGSMRIFTKKLPHPWLPAEEKEQ [D16W] ?
Result: 2.67

Task: Please give the measured protein stability index for this variant: FQGSMRIFTKKLPHPDLPAEEKIQ [E23I]
Result: 1.57

Task: What value of protein stability index has been reported for the following variant? FQGSMRAFTKKLPHPDLPAEEKEQ [I7A]
Result: 2.56

Task: Report protein stability index for FQGSMRKFTKKLPHPDLPAEEKEQ [I7K] please.
Result: 3.69
